Parameter: TGI. Scope: all listed entries.
# Test system: 786-0 renal
# assay_notes: NCI tumour cell line growth inhibition, 48 h

Before answering, review these 5 worked examples.
{"molecule": "O=c1cc(-c2ccccc2)[nH]c2ccc(S)cc12", "TGI": "> 100 µM"}
{"molecule": "O=C1/C(=C/c2ccc3c(c2)OCCO3)CCC/C1=C\\c1ccc2c(c1)OCCO2", "TGI": "> 100 µM"}
{"molecule": "COc1cc(-n2cc(-c3ccccc3)[nH]c2=O)cc(OC)c1OC", "TGI": "91.1 µM"}
{"molecule": "O=[N+]([O-])c1cccc(-c2nc(-c3ccc(Cl)cc3Cl)cn2-c2ccccc2)c1", "TGI": "2.88 µM"}
{"molecule": "COC1=N[C@H](C(C)C)C(OC)=N[C@H]1Cc1ccc(C[C@@H]2N=C(OC)[C@@H](C(C)C)N=C2OC)s1", "TGI": "> 100 µM"}

Request: Can you share its TGI? I mean this molecule: COc1ccc2c(c1)CC1COc3cc(OC)ccc3C1O2 (centres undefined)
Result: > 100 µM

Request: Can you share its TGI? I mean this molecule: Cc1ccc(S(=O)(=O)N/N=C(\c2nc3ccc([N+](=O)[O-])cc3[nH]c2=O)C(O)c2ccc([N+](=O)[O-])cc2)cc1 (centres undefined)
Result: > 100 µM

Request: Can you share its TGI? I mean this molecule: CC(=O)NC1C(OC(C)C(=O)NC(C(=O)NC(CCC(=O)NCCCNC2c3ccccc3Nc3cccc([N+](=O)[O-])c32)C(N)=O)C(C)C)C(O)C(CO)OC1(C)OCc1ccccc1 (centres undefined)
Result: 2.35 µM

Request: Can you share its TGI? I mean this molecule: O=C(c1cccc2ccccc12)C1S(=O)(=O)OCCOS1(=O)=O
Result: > 100 µM

Request: Can you share its TGI? I mean this molecule: CCOC(=O)C1C=C2O[C@@H]3OC4(CCCCC4)O[C@@H]3C2C2C(=O)CCC(=O)[C@@]12C(=O)OC (some centres undefined)
Result: > 100 µM

Request: Can you share its TGI? I mean this molecule: C=C1C(=O)O[C@H]2C1C[C@@H](O)/C(C)=C/CC[C@@]1(C)O[C@H]21 (some centres undefined)
Result: > 48.2 µM

Request: Can you share its TGI? I mean this molecule: O=C1c2c(ccc3c2CCC3)CC1Cc1ccc2c(c1)CCC2 (centres undefined)
Result: 99.1 µM

Request: Can you share its TGI? I mean this molecule: CC(C)(C)OP(=O)(OC(C)(C)C)C(O)c1ccc(/C=C(\C#N)C(N)=O)cc1 (centres undefined)
Result: > 100 µM

Request: Can you share its TGI? I mean this molecule: CC(C)(C)c1cc(C(=O)Nc2ccc(C(=O)NCCN)cc2)cc(C(C)(C)C)c1
Result: 3.07 µM

Request: Can you share its TGI? I mean this molecule: C[C@]12CC[C@@H]3c4ccc(O)cc4CC[C@H]3[C@@H]1CC[C@@H]2NS(=O)(=O)c1ccc(Br)cc1
Result: 8.86 µM

Request: Can you share its TGI? I mean this molecule: Cc1cccc(C)c1NC(=O)CCC/C(CC(=O)c1ccc(F)cc1)=N\NC(=O)C(=O)NN
Result: > 100 µM

Request: Can you share its TGI? I mean this molecule: O=S(=O)(O)c1cc(S(=O)(=O)O)c2cc(N=Nc3c(O)ccc4ccccc34)ccc2c1
Result: > 100 µM

Request: Can you share its TGI? I mean this molecule: Cc1cc(C(=O)/C=C/c2ccc[nH]2)ccc1-n1ccc(C(F)(F)F)n1
Result: > 100 µM

Request: Can you share its TGI? I mean this molecule: COc1cccc2c1C1(O)C2CCCCCCCCCC12OCCCO2 (centres undefined)
Result: > 100 µM
